Sourced from paper PMC6268586

# assay_comment: Tissue distribution of THP, DHC and protopine in rat tissues after gastric gavage administration (HPLC-UV, non-compartmental analysis)
# Format: in vivo, Wistar male rats
# applied_conditions: male, Wistar, po, 26.1 mg/kg, rat cerebrum, read-out: MRT of DHC
parameter: MRT (h)

INSERT INTO assay_data (compound, parameter, number) VALUES
  ('COc1cc2c(cc1OC)-c1c(C)c3ccc(OC)c(OC)c3c[n+]1CC2 [DHC, dehydrocorydaline]', 'MRT', 5.39);

* * *

# assay_comment: Tissue distribution of THP, DHC and protopine in rat tissues after gastric gavage administration (HPLC-UV, non-compartmental analysis)
# Format: in vivo, Wistar male rats
# applied_conditions: male, Wistar, po, 4.52 mg/kg, rat brain stem, read-out: Cmax of protopine
parameter: Cmax (ng/mL)

INSERT INTO measurements (compound, number) VALUES
  ('CN1CCc2cc3c(cc2C(=O)Cc2ccc4c(c2C1)OCO4)OCO3 [protopine]', 820);
